system: rape; experiment: Test B preemergence/postemergence greenhouse plant response rating 0 to 10; type: in vivo, Brassica napus; conditions: PREEMERGENCE, Rate 50 g/ha; 0 to 10 scale
Listed here: items and their measured Plant response rating, Rape.
// return just the number, without any unit appended

Reference set, count: 4
C#CCN1C(=O)COc2cc(F)c(-c3nn4c(c3Br)CCCC4)cc21 [Compound 56]
3
C#CCOc1cc(-c2nn3c(c2Br)CCCC3)c(F)cc1Cl [Compound 26]
3
Fc1cc(Cl)c(OCCCl)cc1-c1nn2c(c1Cl)CCCC2 [Compound 49]
1
Fc1cc(Cl)c(-c2ccccc2)cc1-c1nn2c(c1Cl)CCCC2 [Compound 46]
0

Task: I am curious: what Plant response rating, Rape value has been reported for COCCN1C(=O)COc2cc(F)c(-c3nn4c(c3Cl)CCCC4)cc21 [Compound 53] ?
Output: 2

Task: I am curious: what Plant response rating, Rape value has been reported for Fc1cc(Cl)ccc1-c1nn2c(c1Br)CCCC2 [Compound 52] ?
Output: 1

Task: I am curious: what Plant response rating, Rape value has been reported for C#CC(C)Oc1cc(-c2nn3c(c2Cl)CCCC3)c(F)cc1Cl (stereo not drawn) [Compound 36] ?
Output: 5

Task: I am curious: what Plant response rating, Rape value has been reported for CC(C)Oc1cc(-c2nn3c(c2Br)CCCC3)c(F)cc1Cl [Compound 38] ?
Output: 8

Task: I am curious: what Plant response rating, Rape value has been reported for CCOC(=O)COc1cc(-c2nn3c(c2Cl)CCCC3)c(F)cc1Cl [Compound 42] ?
Output: 2

====

Listed here: items and their measured Plant response rating, Sugar beet.
system: sugar beet; assay: Test B preemergence/postemergence greenhouse plant response rating 0 to 10; assay type: in vivo, Beta vulgaris; settings: Rate 200 g/ha, PREEMERGENCE; 0 to 10 scale

Reference set, count: 5
CC(C)OC(=O)c1cc(-c2nn3c(c2Cl)CCCC3)c(F)cc1Cl
10
Fc1cc(Cl)c(OC2CCCC2)cc1-c1nn2c(c1Cl)CCCC2
9
CC(=O)c1cc(-c2nn3c(c2Cl)CCCC3)c(F)cc1Cl
9
CC(C)Oc1cc(-c2nn3c(c2Br)CCCC3)c(F)cc1Cl
10
Clc1ccc(-c2nc3n(c2Br)CCCC3)c(Cl)c1
0

Okay, next one:
Task: I am curious: what Plant response rating, Sugar beet value has been reported for CC(C)COc1cc(-c2nn3c(c2Cl)CCCC3)c(F)cc1Cl ?
Output: 9

====

test system: crabgrass; experiment: Test B preemergence/postemergence greenhouse plant response rating 0 to 10; type: in vivo, Digitaria spp.; conditions: POSTEMERGENCE, Rate 50 g/ha; 0 to 10 scale
Readout label: Plant response rating, Crabgrass
// return just the number, without any unit appended

CCCN1C(=O)COc2cc(F)c(-c3nn4c(c3Br)CCCC4)cc21
3
Clc1ccc(-c2nn3c(c2Cl)CCCC3)c(Cl)c1
3
C=CCOc1cc(-c2nn3c(c2Br)CCCC3)c(F)cc1Cl
4
CC(C)Oc1cc(-c2nn3c(c2Br)CCCC3)c(F)cc1Cl
5
CCC(C)Oc1cc(-c2nn3c(c2Cl)CCCC3)c(F)cc1Cl (stereo not shown)
8

Task: What value of Plant response rating, Crabgrass on crabgrass does CCN1C(=O)COc2cc(F)c(-c3nn4c(c3Cl)CCCC4)cc21 have?
Output: 3

Task: What value of Plant response rating, Crabgrass on crabgrass does CC(C)Oc1cc(-c2nn3c(c2Cl)CCCC3)c(Cl)cc1Cl have?
Output: 3
